- Measured target: BRAF G466V (Homo sapiens, UniProt P15056, G466V)
- Construct: expressed in transfected cells
- Sequence (P15056 whole entry G466V): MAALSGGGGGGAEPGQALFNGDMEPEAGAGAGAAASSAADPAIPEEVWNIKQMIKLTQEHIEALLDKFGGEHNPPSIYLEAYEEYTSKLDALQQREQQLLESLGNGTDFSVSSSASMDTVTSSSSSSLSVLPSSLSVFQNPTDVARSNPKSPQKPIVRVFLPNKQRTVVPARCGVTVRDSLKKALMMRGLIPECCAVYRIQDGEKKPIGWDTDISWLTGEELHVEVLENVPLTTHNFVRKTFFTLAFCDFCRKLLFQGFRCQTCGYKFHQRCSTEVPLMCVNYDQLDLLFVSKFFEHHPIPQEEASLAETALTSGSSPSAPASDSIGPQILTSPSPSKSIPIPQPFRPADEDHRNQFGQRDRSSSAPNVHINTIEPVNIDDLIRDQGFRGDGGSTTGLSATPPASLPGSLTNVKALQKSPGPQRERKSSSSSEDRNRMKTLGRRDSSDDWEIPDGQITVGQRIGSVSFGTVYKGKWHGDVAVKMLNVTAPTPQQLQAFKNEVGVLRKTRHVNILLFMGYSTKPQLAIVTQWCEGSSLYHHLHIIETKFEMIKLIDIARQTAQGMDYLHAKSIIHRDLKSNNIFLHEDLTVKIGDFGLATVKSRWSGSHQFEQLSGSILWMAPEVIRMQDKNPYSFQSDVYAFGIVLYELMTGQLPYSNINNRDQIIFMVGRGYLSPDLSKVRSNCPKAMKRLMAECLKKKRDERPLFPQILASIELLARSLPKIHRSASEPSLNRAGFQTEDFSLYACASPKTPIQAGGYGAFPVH
- Assay explanation: Cellular assay of target protein degradation, T-Rex 293 cells stably transfected with HA-BRAF G466V (HA immunofluorescence, high content imaging)
- Format: cell-based
- Cond: maximum degradation observed, T-Rex 293 HA-BRAF G466V
Assay metric: Dmax

Consider the following illustrative entries.
{"columns": ["Compound", "Measured result"],
 "data": [
  ["O=C1CC[C@H](N2Cc3cc(C4CCN(CC5CCN(c6ccc(-c7cnc8[nH]cc(C(=O)c9c(F)ccc(NS(=O)(=O)CCO)c9F)c8c7)cc6)CC5)CC4)ccc3C2=O)C(=O)N1", "> 70%"],
  ["CC(C)(C1CCN(c2ccc(-c3cnc4[nH]cc(C(=O)c5c(F)ccc(NS(=O)(=O)N6CC[C@@H](F)C6)c5F)c4c3)cc2)CC1)N1CC2(CN(c3ccc4c(c3)CN(C3CCC(=O)NC3=O)C4=O)C2)C1 (stereo partly drawn)", "> 70%"],
  ["COc1cc(N2CCC(CN3CC4(C3)CN(c3ccc(-c5cnc6[nH]cc(C(=O)c7c(F)ccc(NS(=O)(=O)N8CCC(F)(F)C8)c7F)c6c5)cc3)C4)CC2)cc2c1C(=O)N(C1CCC(=O)NC1=O)C2 (stereo not drawn)", "> 70%"],
  ["O=C1CCC(N2Cc3cc(N4CCC(C5CN(c6ccc(-c7cnc8[nH]cc(C(=O)c9c(F)ccc(NS(=O)(=O)N%10CC[C@@H](F)C%10)c9F)c8c7)cc6)C5)CC4)ccc3C2=O)C(=O)N1 (stereo partly drawn)", "35 to 70%"],
  ["O=C1CC[C@H](N2Cc3cc(CC[C@@H](O)CN4CC5(C4)CN(c4ccc(-c6cnc7[nH]cc(C(=O)c8c(F)ccc(NS(=O)(=O)N9CC[C@@H](F)C9)c8F)c7c6)cc4)C5)ccc3C2=O)C(=O)N1", "> 70%"]
]}

For BRAF G466V (Homo sapiens, UniProt P15056, G466V), give the measured Dmax of the entry O=C1CCC(N2Cc3cc(O[C@H]4C[C@]5(COCCN5CC5CCN(c6ccc(-c7cnc8[nH]cc(C(=O)c9c(F)ccc(NS(=O)(=O)N%10CC[C@@H](F)C%10)c9F)c8c7)cc6)CC5)C4)ccc3C2=O)C(=O)N1 (stereo partly drawn)
< 35%

For BRAF G466V (Homo sapiens, UniProt P15056, G466V), give the measured Dmax of the entry O=C1CCC(N2Cc3cc(N4CCC(CN5CCN(c6ccc(-c7cnc8[nH]cc(C(=O)c9c(F)ccc(NS(=O)(=O)N%10CC[C@@H](F)C%10)c9F)c8c7)cn6)CC5)CC4)ccc3C2=O)C(=O)N1 (stereo partly drawn)
> 70%

For BRAF G466V (Homo sapiens, UniProt P15056, G466V), give the measured Dmax of the entry `C[C@@H]1C[C@H](CN2CCC(c3ccc4c(c3)CN([C@@H]3CCC(=O)NC3=O)C4=O)CC2)CCN1c1ccc(-c2cnc3[nH]cc(C(=O)c4c(F)ccc(NS(=O)(=O)N5CC[C@@H](F)C5)c4F)c3c2)cc1`
> 70%

For BRAF G466V (Homo sapiens, UniProt P15056, G466V), give the measured Dmax of the entry O=C1CCC(N2Cc3cc(C[C@H](O)CN4CC5(C4)CN(c4ccc(-c6cnc7[nH]cc(C(=O)c8c(F)ccc(NS(=O)(=O)N9CC[C@@H](F)C9)c8F)c7c6)cc4)C5)ccc3C2=O)C(=O)N1 (stereo partly drawn)
35 to 70%

For BRAF G466V (Homo sapiens, UniProt P15056, G466V), give the measured Dmax of the entry COc1cc(N2CCC(CN3CCC4(CC3)CCN(c3ccc(-c5cnc6[nH]cc(C(=O)c7c(F)ccc(NS(=O)(=O)N8CC[C@@H](F)C8)c7F)c6c5)cc3)CC4)CC2)cc2c1C(=O)N(C1CCC(=O)NC1=O)C2 (stereo partly drawn)
35 to 70%

For BRAF G466V (Homo sapiens, UniProt P15056, G466V), give the measured Dmax of the entry `O=C1CC[C@@H](NC(=O)c2ccc(N3CC4(CN(CC5CCN(c6ccc(-c7cnc8[nH]cc(C(=O)c9c(F)ccc(NS(=O)(=O)N%10CC[C@@H](F)C%10)c9F)c8c7)cc6)CC5)C4)C3)cn2)C(=O)N1`
< 35%

For BRAF G466V (Homo sapiens, UniProt P15056, G466V), give the measured Dmax of the entry `CCCS(=O)(=O)Nc1ccc(F)c(C(=O)c2c[nH]c3ncc(-c4ccc(N5CCN(CC6CCN(c7ccc8c(c7)CN([C@H]7CCC(=O)NC7=O)C8=O)CC6)CC5)cc4)cc23)c1F`
> 70%

For BRAF G466V (Homo sapiens, UniProt P15056, G466V), give the measured Dmax of the entry O=C1CCC(N2Cc3cc(CCCCCN4CCN(c5ccc(-c6cnc7[nH]cc(C(=O)c8c(F)ccc(NS(=O)(=O)N9CC[C@@H](F)C9)c8F)c7c6)cc5)CC4)ccc3C2=O)C(=O)N1 (stereo partly drawn)
35 to 70%

For BRAF G466V (Homo sapiens, UniProt P15056, G466V), give the measured Dmax of the entry O=C1CCC(N2Cc3cc(N4CC5(CN(CC#Cc6ccc(-c7cnc8[nH]cc(C(=O)c9c(F)ccc(NS(=O)(=O)N%10CC[C@@H](F)C%10)c9F)c8c7)cc6)C5)C4)ccc3C2=O)C(=O)N1 (stereo partly drawn)
35 to 70%

For BRAF G466V (Homo sapiens, UniProt P15056, G466V), give the measured Dmax of the entry `O=C1CC[C@H](N2Cc3cc(C4CN(CC5CC6(C5)CN(c5ccc(-c7cnc8[nH]cc(C(=O)c9c(F)ccc(NS(=O)(=O)N%10CC[C@@H](F)C%10)c9F)c8c7)cc5)C6)C4)ccc3C2=O)C(=O)N1`
> 70%

For BRAF G466V (Homo sapiens, UniProt P15056, G466V), give the measured Dmax of the entry O=C1CCC(N2Cc3cc(N4CCN(C[C@@H](O)Cc5ccc(-c6cnc7[nH]cc(C(=O)c8c(F)ccc(NS(=O)(=O)N9CC[C@@H](F)C9)c8F)c7c6)cc5)CC4)ccc3C2=O)C(=O)N1 (stereo partly drawn)
> 70%

For BRAF G466V (Homo sapiens, UniProt P15056, G466V), give the measured Dmax of the entry O=C1CCC(N2Cc3cc(C4CCN(C5CCN(c6ccc(-c7cnc8[nH]cc(C(=O)c9c(F)ccc(NS(=O)(=O)N%10CC[C@@H](F)C%10)c9F)c8c7)cc6)CC5)CC4)ccc3C2=O)C(=O)N1 (stereo partly drawn)
> 70%

For BRAF G466V (Homo sapiens, UniProt P15056, G466V), give the measured Dmax of the entry `O=C1CC[C@H](NC(=O)N2CCCc3c(N4CC5(CN(CCc6ccc(-c7cnc8[nH]cc(C(=O)c9c(F)ccc(NS(=O)(=O)N%10CC[C@@H](F)C%10)c9F)c8c7)cc6)C5)C4)ccnc32)C(=O)N1`
35 to 70%
